# credit: the RNAGym collection of RNA variant scans (doi:10.1093/molbev/msab373)

B1: Azoarcus group I ribozyme (parent)
chain: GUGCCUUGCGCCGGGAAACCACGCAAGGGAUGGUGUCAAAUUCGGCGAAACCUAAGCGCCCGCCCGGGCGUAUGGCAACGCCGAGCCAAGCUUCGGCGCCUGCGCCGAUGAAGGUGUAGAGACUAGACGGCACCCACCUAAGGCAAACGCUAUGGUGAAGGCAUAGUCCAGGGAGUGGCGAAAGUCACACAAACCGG

# Variants of: B1
# Assay: reverse-splicing fitness (ratio to wild type); higher = more active; in vitro selection; Mg2+ level not given
Field: reverse-splicing fitness. Provide a value for each of the variants that follow.
One number for each entry.

{"Mut": "A145U C169G", "Numeric result": 0.3}
{"Mut": "C82A A111C A120G A145G C150G C169G U176C", "Numeric result": 0.0118}
{"Mut": "C82A A111U A145C C150A C169G U176C", "Numeric result": 0.0169}
{"Mut": "C82U A120U A145U C150A", "Numeric result": 0.0156}
{"Mut": "C82G A111C C150A C169A U176G", "Numeric result": 0.00921}

Below are 2 variants. Give each one its reverse-splicing fitness.
1. C82G A120U A145C C150G C169U U176C
2. C82U A111U A120G C150U U176C

**A:**
1. 0.00176
2. 0.0136

Return reported reverse-splicing fitness values for all items listed beneath this line.
1. C82A A111U A120C A145U C150U U176A
2. C82U A120G A145U C150A U176A

**A:**
0.0138
0.00948

Each of the following entries comes with a recorded value; kindly state reverse-splicing fitness for each.
1. C82A A111G A120C C150G U176C
2. A111G A145C C150A C169U U176A
3. C82U A111C A120G A145C C150G U176G
4. C82A A111C A120U A145U C169G U176C
5. A111U A120C A145U C150U C169A
6. C82G A111U A120G C169U U176C

**A:**
1: 0.00892; 2: 0.0152; 3: 0.00269; 4: 0.00308; 5: 0.0105; 6: 0.0179
